tested on: JAR; assay: The compound along with CPG2 was tested for cytotoxicity against human JAR, choriocarcinoma cell line.; assay type: functional; settings: read-out: ID50 (the source's name)
measured.attribute: IC50 (µM)

[[record]]
compound = "CS(=O)(=O)OCCN(CCCl)c1ccc(C(=O)NC(CCC(=O)O)C(=O)O)cc1 (stereo not drawn)"
measured_attribute = "IC50"
reported_result = 10

[[record]]
compound = "O=C(O)CCC(NC(=O)c1ccc(N(CCCl)CCCl)cc1)C(=O)O (stereo not drawn)"
measured_attribute = "IC50"
reported_result = 8

[[record]]
compound = "CS(=O)(=O)OCCN(CCOS(C)(=O)=O)c1ccc(C(=O)NC(CCC(=O)O)C(=O)O)cc1 (stereo not drawn)"
measured_attribute = "IC50"
reported_result = 60


###

Overview of reported IC50 across a group of compounds:
system: LS174T; test: The compound was tested for cytotoxicity against human LS174T,colorectal cell line.; format: functional; conditions: read-out: ID50 (the source's name)
measured.attribute: IC50 (µM)

[[record]]
compound = "CS(=O)(=O)OCCN(CCOS(C)(=O)=O)c1ccc(C(=O)NC(CCC(=O)O)C(=O)O)cc1 (stereo not drawn)"
censoring_operator = "="
reported_result = 800

[[record]]
compound = "O=C(O)CCC(NC(=O)c1ccc(N(CCCl)CCCl)cc1)C(=O)O (stereo not drawn)"
censoring_operator = ">"
reported_result = 800

[[record]]
compound = "CS(=O)(=O)OCCN(CCCl)c1ccc(C(=O)NC(CCC(=O)O)C(=O)O)cc1 (stereo not drawn)"
censoring_operator = "="
reported_result = 285

